target: Histone-lysine N-methyltransferase EHMT2 (Homo sapiens); assay: qHTS Assay for Inhibitors of Histone Lysine Methyltransferase G9a; conditions: G9a H3K9 monomethylation, AlphaScreen, 2 h; series mostly up to 59 µM; also: nearly all actives have a fitted effect of over 75% in size
Out of some 350,000 compounds screened, about 31,000 (8.9%) were called active. Inconclusive results (about 15%) are left out. Calls follow the shape of the dose curve; as a rule, active = well fitted inhibition curve with a large enough effect; inconclusive = small, poorly fitted or top-dose-only effect; inactive = no such curve, though single readings can be large or run the other way. Only a selection was taken, and actives are over-represented in it overall.
Classes to choose from: T (active), F (inactive)

Molecule: CCOC(=O)C1CCN(S(=O)(=O)c2cc(F)ccc2OC)CC1
Discrete label: F

Molecule: Cc1cc(C)c(NC(=O)CSc2nc3nccnc3c(=O)n2CCc2c[nH]c3ccccc23)c(C)c1
Discrete label: F

Molecule: Cc1nn(-c2ccccc2)c(C)c1NC(=O)COC(=O)c1cc(Cl)ccc1O
Discrete label: F

Molecule: COc1ccc(NC(=O)CSc2nc3ncccc3[nH]2)c(OC)c1
Discrete label: F

Molecule: O=C(O)c1c(CNCc2cccc(F)c2)c2ccccc2n1Cc1ccccc1
Discrete label: F

Molecule: COc1ccccc1N1CCN(Cc2ccc(OC)c3ccccc23)CC1
Discrete label: T

Molecule: COc1ccc(C(=O)CC(=O)C(=O)Nc2cc([N+](=O)[O-])ccc2OC)cc1
Discrete label: F

Molecule: COc1ccccc1CCNC(=O)c1c(C)nn(CC(C)C)c1Cl
Discrete label: F

Molecule: Fc1ccccc1OCCCCn1cncn1
Discrete label: F

Molecule: CCN1CCN(CCCCOc2ccccc2F)CC1
Discrete label: T

Now look at this one.
I would be grateful if you could indicate the recorded call for Cc1ccc(C(=O)CN2C(=O)NC3(CCc4ccccc43)C2=O)c(C)c1 (stereo not drawn) .
F

###

molecular target: Histone-lysine N-methyltransferase EHMT2 (Homo sapiens); assay: qHTS Assay for Inhibitors of Histone Lysine Methyltransferase G9a; settings: G9a H3K9 monomethylation, AlphaScreen, 2 h; series mostly up to 59 µM; also: nearly all actives have a fitted effect of over 75% in size
Out of some 350,000 compounds screened, about 31,000 (8.9%) were called active. Roughly 15% stayed inconclusive and do not appear here. The call rests on the fitted dose curve; in most records, active means well fitted inhibition curve with a large enough effect; inconclusive means small, poorly fitted or top-dose-only effect; inactive means no such curve, though single readings can be large or run the other way. Only a selection was taken, and actives are over-represented in it overall.
Classes to choose from: true = active, false = inactive

See these solved cases before continuing.
Molecule: CCCN(CCC)c1nc2c(C)cccn2c(=O)c1/C=C1/SC(=S)N(Cc2ccco2)C1=O
Discrete label: true
//
Molecule: CCCNC(=O)c1ccc2c(c1)ncn2-c1ccc(C)cc1C
Discrete label: false
//
Molecule: CCOC(=O)c1c(C)oc2nc(C)nc(N3CCN(c4ccc(OC)cc4)CC3)c12
Discrete label: true
//
Molecule: Cc1cccn2c(=O)c(/C=C3\SC(=S)N(CC(C)C)C3=O)c(NCCCOC(C)C)nc12
Discrete label: false
//
Molecule: CC(Oc1ccc(F)cc1)C(=O)Nc1ccccc1C(=O)NC1CC1 (stereo unspecified)
Discrete label: false

I would be grateful if you could indicate the recorded call for Cc1ccc2[nH]c(=O)c(-c3nc4c(C)cccn4c3NCc3ccco3)cc2c1 .
false

I would be grateful if you could indicate the recorded call for Cc1ccccc1-c1nc2scc(CCNC(=O)C(=O)Nc3ccc(F)cc3F)n2n1 .
false

I would be grateful if you could indicate the recorded call for N#CC1=C(N)Oc2c(sc3ccccc23)C1c1ccco1 (stereo unspecified) .
true

I would be grateful if you could indicate the recorded call for CCc1ccc(Sc2cc(C(=O)NCCCOC(C)C)c3ccccc3n2)cc1 .
false

I would be grateful if you could indicate the recorded call for COc1ccc(NC(=O)COCc2cc(-c3ccco3)on2)cc1 .
false

I would be grateful if you could indicate the recorded call for COc1ccccc1/C=C/C(=O)NC(=S)N1CCOCC1 .
false

The values you see were collected from PubChem BioAssay AID504332.
